# procedure-details: Antiproliferative activity against human HeLa cells after 48 hrs by MTT assay
# Format: functional
property: GI50 (µM)
The reply should be a number in µM, with the unit left off.

Form field: reported GI50 of COc1cc2c(cc1OCc1ccccc1)C[N@@]1CC[C@@]23C=CC(=O)C[C@H]13
12

Form field: reported GI50 of COc1cc2c(cc1OC)[C@@]13C=CC(=O)C[C@@H]1[N@](CC3)C2
64

Form field: reported GI50 of O=C1C=C[C@]23CC[N@](Cc4cc(OCc5ccccc5)ccc42)[C@H]3C1
8

====

Record form. Attribute: GI50. Fill in for each entry.
# procedure-details: Antiproliferative activity against drug-resistant human U87 cells after 48 to 96 hrs by MTT assay
# Type: functional, U-87MG ATCC
# stated-conditions: U-87 MG
The reply should be a number in µM, with the unit left off.

Form field: reported GI50 of O[C@H]1C=C[C@@]23c4cc5c(cc4CN(C[C@@H]2O)[C@H]3C1)OCO5
38

Form field: reported GI50 of O=C1C=C[C@]23CC[N@](Cc4c2sc2ccccc42)[C@H]3C1
2

Form field: reported GI50 of O=C1C=CC2(C=C1)CCN(C(=O)C(F)(F)F)Cc1c2sc2ccccc12
6

Form field: reported GI50 of O=C1C=C[C@]23CC[N@](Cc4cc(OCc5ccccc5)c(OCc5ccccc5)cc42)[C@H]3C1
5
